Target: equine FcRn (large alpha subunit p51) / equine beta-2-microglobulin complex, biotinylated (equine) (UniProt P30441)
Experiment: SPR (Biacore), pH 6
QUANTITY_MEASURED: pKd
Answers are plain numbers, as −log10 of the molar value.

(Q) I am curious: what pKd value has been reported for equine IgG1 G426S (antibody, part only; not given: variable domains, not shown: another chain or arm of the molecule) constant: ASTTAPKVFALAPGCGTTSDSTVALGCLVSGYFPEPVKVSWNSGSLTSGVHTFPSVLQSSGFYSLSSMVTVPASTWTSETYICNVVHAASNFKVDKRIEPIPDNHQKVCDMSKCPKCPAPELLGGPSVFIFPPNPKDTLMITRTPEVTCVVVDVSQENPDVKFNWYMDGVEVRTATTRPKEEQFNSTYRVVSVLRIQHQDWLSGKEFKCKVNNQALPQPIERTITKTKGRSQEPQVYVLAPHPDELSKSKVSVTCLVKDFYPPEINIEWQSNGQPELETKYSTTQAQQDSDGSYFLYSKLSVDRNRWQQGTTFTCSVMHEALHNHYTQKNVSKNPGK ?
(A) 8.05
